- Test system: HEK-293T
- experiment: Multiplex assay against HEK293T;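 further: share of the cells with healthy nuclei that show this phenotype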
- Type: toxicity, cell-based
- applied.conditions: human, 48 h, 1 µM, compound concentration 1 uM, replicate 1
quantity.name: Population Tubulin-Different-Phenotype (%)
Response body: numeric value in %, unit text excluded.

Please review the entries below; each comes with its answer.
N#Cc1cccc(C(=O)Nc2cc(-c3ccccc3)nn2-c2ccccc2)c1 :: 44
CCCc1cc(C)[nH]c(=O)c1CNC(=O)c1cc(-c2ccc(N3CCN(C(C)C)CC3)nc2)cc2c1cnn2C(C)C :: 86
CCCCCNC(=N)N/N=C/c1c[nH]c2ccc(OC)cc12.O=C(O)/C=C\C(=O)O [TEGASEROD MALEATE] :: 30
CC(C)[C@H](CO)Nc1nc(Nc2cccc(Cl)c2)c2ncn(C(C)C)c2n1 :: 38

The recorded Population Tubulin-Different-Phenotype (%) with HEK-293T for `CC(C)c1cc(Nc2nc(N3CCC[C@H](N)C3)ncc2C(N)=O)cc(C(C)C)n1` was 95

The recorded Population Tubulin-Different-Phenotype (%) with HEK-293T for `Oc1cccc(-c2nc(N3CCOCC3)c3oc4ncccc4c3n2)c1` was 63

The recorded Population Tubulin-Different-Phenotype (%) with HEK-293T for CC(Cc1ccc(O)c(O)c1)C(C)Cc1ccc(O)c(O)c1 (configuration not stated) [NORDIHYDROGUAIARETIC ACID] was 14
